The reported measurements were obtained from patent US11713305B2.

- assay.explanation: 17O NMR of Gd complexes (water exchange, SBM fitting)
- Format: physicochemical
- condition: best-fit, 17O NMR, [Gd^3+]=25 mM, 9.4 T
measurement.type: ΔH‡ (kJ/mol)

Below are worked cases with known answers.
I have this molecule here, O=C(O)CN1CCN(CCC(=O)NCCN(Cc2ccccn2)Cc2ccccn2)CCN(CC(=O)O)CCN(CC(=O)O)CC1 , and I need its recorded ΔH‡.
45.8

Another: O=C(O)CCN1CCN(CC(=O)O)CCN(CC(=O)NCCN(Cc2ccccn2)Cc2ccccn2)CCN(CC(=O)O)CC1
47.0

(1) O=C(O)CN1CCN(CCC(=O)NCCN(CCc2ccccn2)Cc2ccccn2)CCN(CC(=O)O)CCN(CC(=O)O)CC1
(2) O=C(O)CN1CCN(CC(=O)O)CCN(CC(=O)NCCN(CCc2ccccn2)Cc2ccccn2)CCN(CC(=O)O)CC1
Which numeric ΔH‡ is bigger, that of 1 or that of 2 ? Bench note: the answer is the label of the chosen record.
1
